- Tested on: HGC-27 human gastric carcinoma cell line
- method description: cells
- condition label: Homo sapiens, HGC-27, 72 h
pIC50: −log10 of the molar value.
Output TRUE for pIC50 not less than 7; output FALSE otherwise.

{"columns": ["molecule", "qualitative label"],
 "data": [
  ["Nc1ccn([C@@H]2O[C@H](CO)[C@@H](O)[C@@H]2O)c(=O)n1", "FALSE"]
]}

Req: Dear colleague, could you confirm whether `COc1ccc2[nH]c3c(c2c1)CCN[C@]31CS[C@@H]2c3c(OC(C)=O)c(C)c4c(c3[C@H](COC1=O)N1[C@@H]2[C@H]2c3c(cc(C)c(OC)c3O)C[C@@H]([C@@H]1O)N2C)OCO4` has pIC50 at or above 7?
Resp: TRUE
